assayProtocol: protein stability index of a GFP-peptide fusion (yeast GPS) (PSI 1-4); higher = more stable; sorted into four equal gates, so the index is relative within each strain
cond: doa10∆

{"orderedResidues": "IIPQDILDCVVTNSMRQ [YJR042W/NUP85]", "protein stability index": 3.01}
{"orderedResidues": "HENYIQDDDFPLDDAGT [MCD1]", "protein stability index": 2.95}
{"orderedResidues": "LSEEKEVIFTDVLKSQA [MCD1]", "protein stability index": 2.92}
{"orderedResidues": "FDKNTKTTPNTASSEAS [YMR153W/NUP53]", "protein stability index": 2.99}
{"orderedResidues": "KKISSFKSLIDEDLLDT [YGL172W/NUP49]", "protein stability index": 3.08}
{"orderedResidues": "SASKHEYSDNFPVSLSQ [SIR4]", "protein stability index": 3}
